Data credit: ChEMBL document CHEMBL1153442

# systemName: Caspase-1 (Homo sapiens)
# Sequence (P29466 whole entry): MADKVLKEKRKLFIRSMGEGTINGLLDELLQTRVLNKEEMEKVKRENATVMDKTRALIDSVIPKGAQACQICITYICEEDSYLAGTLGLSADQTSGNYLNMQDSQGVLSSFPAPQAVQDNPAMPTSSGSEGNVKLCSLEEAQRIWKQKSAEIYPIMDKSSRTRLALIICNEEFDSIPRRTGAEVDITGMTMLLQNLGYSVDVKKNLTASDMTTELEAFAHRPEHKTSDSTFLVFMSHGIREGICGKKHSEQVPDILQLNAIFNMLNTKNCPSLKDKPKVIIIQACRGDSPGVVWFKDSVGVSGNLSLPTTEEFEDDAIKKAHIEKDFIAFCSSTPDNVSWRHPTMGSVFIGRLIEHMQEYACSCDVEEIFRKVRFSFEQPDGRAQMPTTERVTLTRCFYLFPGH
# methodDescription: Inhibition of human recombinant caspase 1 assessed as accumulation of fluorogenic product by fluorometric assay
pIC50: −log10 of the molar value.
Quick reference for pIC50 among some compounds

1. O=C1C(=O)N(Cc2ccccc2)c2ccc(S(=O)(=O)N3CCC3)cc21 : < 5.00
2. N#CC(C#N)=C1C(=O)N(Cc2ccc(Cl)c(Cl)c2)c2ccc(S(=O)(=O)N3CCC3)cc21 : < 5.00
3. COc1ccc(CN2C(=O)C(=C(C#N)C#N)c3cc(S(=O)(=O)N4CCCCC4)ccc32)cc1 : < 5.00
4. O=C1Nc2ccc(S(=O)(=O)N3CCOCC3)cc2C1=O : < 4.60
5. N#CC(C#N)=C1C(=O)N(Cc2ccc(Cl)c(Cl)c2)c2ccc(S(=O)(=O)N3CCCCC3)cc21 : < 5.00

Here is another compound to look at.
What does the record list as pIC50 for O=C1C(=O)N(Cc2ccccc2)c2ccc(S(=O)(=O)N3CCSCC3)cc21 ?
< 5.00
